tested on: UACC-257 melanoma; test: NCI tumour cell line growth inhibition, 48 h; in the data active means GI50 below about 0.43 µM; inactive means the rest
Select the correct class. Options are t (active), f (inactive) and nothing else.

Please review the entries below; each comes with its answer.
* COc1ccc(OC)c(C(=O)c2oc3ccc(Br)cc3c2N)c1 | t
* O=C(O)[C@@H]1CCCCN1Cc1cc2cc3c(cc2c2cc(OCc4ccccc4)ccc12)OCO3 | f
* CCN(CC)CCCC(C)Nc1cnc(C(=O)Nc2cccc3ccc(OC)nc23)cn1 (stereo not drawn) | f
* COc1cc2c3c(n(C)c(=O)c2cc1OC)-c1cc2c(cc1/C3=C\CNCCCN)OCO2 | f
* O=C1/C(=C/c2ccc(O)cc2)CSc2ccc(Cl)cc21 | f

In this assay, the call recorded for Cc1ccc2c3c(c(=O)[nH]c2c1)C1(C(C#N)=C(N)O3)c2cc(Br)ccc2-c2ccc(Br)cc21 was what?
f

In this assay, the call recorded for Cc1ccc(C(=O)Nc2ccc(CN3CCN(C)CC3)c(C(F)(F)F)c2)cc1C#Cc1cnc(N)c2ccccc12 was what?
f

In this assay, the call recorded for C=C[C@H]1C[C@@H]2C[C@@H]3[C@H]4C/C=C\C(=O)NCCCC5NC(=O)C(=C(O)/C=C/[C@@H]4CC(=O)[C@H]3[C@@H]2[C@H]1C)C5=O (stereo partly drawn) was what?
t

In this assay, the call recorded for N#Cc1cccc(NC(=O)c2cc(-c3ccc(F)cc3F)ccc2O)c1 was what?
f

In this assay, the call recorded for COc1cc2c3c(n(CCCCOC(=O)C(Cl)(Cl)Cl)c(=O)c2cc1OC)-c1cc2c(cc1C3=O)OCO2 was what?
f

In this assay, the call recorded for CC(=O)O.[Au].c1ccc([PH+](c2ccccc2)c2ccccc2)cc1 was what?
f

In this assay, the call recorded for COc1ccc2nc3cc(Cl)ccc3c(NCCN)c2c1 was what?
f
